Origin of the recorded values: patent US20060276498A1

- target_or_test_system: human Cot/Tpl2 kinase (Homo sapiens, UniProt P41279)
- Construct: human Cot/Tpl2 kinase construct encoding residues 30-398; 6His (N); made in house; host or cells: Sf9 insect cells (baculovirus system, BD Biosciences)
- Sequence (P41279 30-398): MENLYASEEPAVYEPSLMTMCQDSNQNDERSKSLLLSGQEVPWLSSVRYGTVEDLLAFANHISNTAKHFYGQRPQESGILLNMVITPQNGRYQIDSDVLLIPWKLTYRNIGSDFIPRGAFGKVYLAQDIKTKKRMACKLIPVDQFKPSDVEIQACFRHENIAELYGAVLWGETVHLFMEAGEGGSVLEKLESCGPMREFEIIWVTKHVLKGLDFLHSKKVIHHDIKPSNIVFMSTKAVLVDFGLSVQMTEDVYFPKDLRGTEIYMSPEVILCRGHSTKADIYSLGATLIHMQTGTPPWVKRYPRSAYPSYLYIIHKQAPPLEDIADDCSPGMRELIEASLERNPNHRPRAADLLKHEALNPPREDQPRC
- assay_text: Tpl2/Cot kinase assay, GST-MEK1 phosphorylation detected by ELISA (DELFIA Eu)
- Format: biochemical
- test_parameters: Table 1; 0.4 nM Tpl2, 35 nM GST-MEK1, 50 uM ATP, 1 h at 30° C.
- Experimental: Sf9 cells expressing the kinase were lysed in 50 mM NaPhosphate pH=8; 300 mM NaCl; 5 mM imidazole; 0.1 mM EGTA; 25 mM beta-glycerophosphate; 1% TX-100, 1% glycerol; 6 mM beta-mercaptoethanol and protease inhibitors. […] Tpl2/Cot activity was directly assayed using GST-MEK1 as a substrate. GST-MEK1 phosphorylation on serine residues 217 and 221 was detected by ELISA. […] After a final wash, Eu detection solution was added to each well and the Eu signal was measured in a Wallac Victor^2 Multilabel Counter. […]
Each entry below carries its reported IC50.

compound: CS(=O)(=O)Nc1cccc(Nc2c(C#N)cnc3cnc(NCCN4CCOCC4)cc23)c1 [Example 85]
meas_value: > 10 µM
//
compound: N#Cc1cnc2cnc(NCCN3CCOCC3)cc2c1Nc1cccc([N+](=O)[O-])c1 [Example 81]
meas_value: 0.27 µM
//
compound: N#Cc1cnc2cnc(NCc3cccnc3)cc2c1Nc1cccc(Oc2ccccc2)c1 [Example 15]
meas_value: > 40 µM

From here, focus on the item given below.
What value of measured IC50 is listed for N#Cc1cnc2cnc(NCc3cccnc3)cc2c1Nc1ccc(Cc2ccccc2)cc1 [Example 14] ?
0.017 µM

###

- target_or_test_system: human Cot/Tpl2 kinase (Homo sapiens, UniProt P41279)
- Construct: human Cot/Tpl2 kinase construct encoding residues 30-398; 6His (N); made in house; host or cells: Sf9 insect cells (baculovirus system, BD Biosciences)
- assay_text: Tpl2/Cot kinase assay, GST-MEK1 phosphorylation detected by ELISA (DELFIA Eu)
- Assay type: biochemical
- test_parameters: Table 1; 0.4 nM Tpl2, 35 nM GST-MEK1, 50 uM ATP, 1 h at 30° C.
observable: IC50

compound: C[C@H](Nc1cc2c(Nc3ccc(F)c(Cl)c3)c(C#N)cnc2cn1)c1ccccc1
IC50: 36 µM
//
compound: C[C@H](O)CNc1cc2c(Nc3ccc(F)c(Cl)c3)c(C#N)cnc2cn1
IC50: 3.6 µM
//
compound: N#Cc1cnc2cnc(NCCN3CCOCC3)cc2c1Nc1ccc([N+](=O)[O-])cc1
IC50: 7 µM
//
compound: N#Cc1cnc2cnc(NCc3cccnc3)cc2c1Nc1ccc(F)c(Cl)c1
IC50: 0.05 µM
//
compound: N#Cc1cnc2cnc(NCCN3CCOCC3)cc2c1Nc1cccc(C(N)=O)c1
IC50: > 10 µM

Record N#Cc1cnc2cnc(NCCN3CCOCC3)cc2c1Nc1ccc(Sc2ccccc2)cc1 : what is its IC50 with human Cot/Tpl2 kinase (Homo sapiens, UniProt P41279)?
0.006 µM

###

- target_or_test_system: human Cot/Tpl2 kinase (Homo sapiens, UniProt P41279)
- Construct: human Cot/Tpl2 kinase construct encoding residues 30-398; 6His (N); made in house; host or cells: Sf9 insect cells (baculovirus system, BD Biosciences)
- assay_text: Tpl2/Cot kinase assay, GST-MEK1 phosphorylation detected by ELISA (DELFIA Eu)
- Format: biochemical
- test_parameters: Table 1; 0.4 nM Tpl2, 35 nM GST-MEK1, 50 uM ATP, 1 h at 30° C.
observable: IC50 (µM)
Please state the figure in µM; there is no need to write the unit.

Known results for compounds:
smiles_representation: N#Cc1cnc2cnc(NC3CCCC3)cc2c1Nc1ccc(F)c(Cl)c1
IC50 [µM]: 7.6
//
smiles_representation: N#Cc1cnc2cnc(NCc3cccnc3)cc2c1Nc1cccc(Cl)c1
IC50 [µM]: 0.065
//
smiles_representation: N#Cc1cnc2cnc(NCc3cccnc3)cc2c1Nc1ccc(F)c(F)c1
IC50 [µM]: 0.29
//
smiles_representation: N#Cc1cnc2cnc(NCCN3CCOCC3)cc2c1Nc1ccc(F)c(F)c1
IC50 [µM]: 3.6
//
smiles_representation: N#Cc1cnc2cnc(N[C@H]3CCCc4ccccc43)cc2c1Nc1ccc(F)c(Cl)c1
IC50 [µM]: 3.9

From here, focus on the item given below.
What value of measured IC50 is listed for N#Cc1cnc2cnc(NCc3cccnc3)cc2c1Nc1ccc(Sc2ccccc2)cc1 ?
0.009

###

- target_or_test_system: human Cot/Tpl2 kinase (Homo sapiens, UniProt P41279)
- Construct: human Cot/Tpl2 kinase construct encoding residues 30-398; 6His (N); made in house; host or cells: Sf9 insect cells (baculovirus system, BD Biosciences)
- assay_text: Tpl2/Cot kinase assay, GST-MEK1 phosphorylation detected by ELISA (DELFIA Eu)
- Format: biochemical
- test_parameters: Table 2; additional representative compounds
Each entry below carries its reported pIC50.
Remember the convention: pIC50 equals -log10 of concentration in molar.

Known results for compounds:
smiles_representation: N#Cc1cnc2cnc(NCc3cccnc3)cc2c1NC1CCCC1
meas_value: 6.49

smiles_representation: N#Cc1cnc2cnc(NCc3ccncc3)cc2c1Nc1ccc(F)c(Cl)c1
meas_value: 7.51

Record CC(C)(Nc1cc2c(Nc3ccc(F)c(Cl)c3)c(C#N)cnc2cn1)c1ccccc1 : what is its pIC50 with human Cot/Tpl2 kinase (Homo sapiens, UniProt P41279)?
5.92

###

- target_or_test_system: human Cot/Tpl2 kinase (Homo sapiens, UniProt P41279)
- Construct: human Cot/Tpl2 kinase construct encoding residues 30-398; 6His (N); made in house; host or cells: Sf9 insect cells (baculovirus system, BD Biosciences)
- assay_text: Tpl2/Cot kinase assay, GST-MEK1 phosphorylation detected by ELISA (DELFIA Eu)
- Format: biochemical
- test_parameters: Table 2; additional representative compounds
observable: pIC50
Remember the convention: pIC50 equals -log10 of concentration in molar.

Record N#Cc1cnc2cnc(NCc3cccc(Br)c3)cc2c1Nc1ccc(F)c(Cl)c1 [Example 121] : what is its pIC50 with human Cot/Tpl2 kinase (Homo sapiens, UniProt P41279)?
6.37

Consider next the compound N#Cc1cnc2cnc(NCc3cccnc3)cc2c1NC1CCCCCC1 [Example 113] in the same way.
6.80

Consider next the compound N#Cc1cnc2cnc(NCc3cccnc3)cc2c1NC1CCCCC1 [Example 114] in the same way.
6.33

Consider next the compound Cn1nc(C(C)(C)C)cc1Nc1c(C#N)cnc2ccc(N)cc12 [Example 139] in the same way.
6.57

Consider next the compound N#Cc1cnc2cnc(NCCN3CCCCC3)cc2c1Nc1ccc(F)c(Cl)c1 [Example 122] in the same way.
5.60

###

- target_or_test_system: human Cot/Tpl2 kinase (Homo sapiens, UniProt P41279)
- Construct: human Cot/Tpl2 kinase construct encoding residues 30-398; 6His (N); made in house; host or cells: Sf9 insect cells (baculovirus system, BD Biosciences)
- assay_text: Tpl2/Cot kinase assay, GST-MEK1 phosphorylation detected by ELISA (DELFIA Eu)
- Type: biochemical
- test_parameters: Table 2; additional representative compounds
- Method: Sf9 cells expressing the kinase were lysed in 50 mM NaPhosphate pH=8; 300 mM NaCl; 5 mM imidazole; 0.1 mM EGTA; 25 mM beta-glycerophosphate; 1% TX-100, 1% glycerol; 6 mM beta-mercaptoethanol and protease inhibitors. […] Tpl2/Cot activity was directly assayed using GST-MEK1 as a substrate. GST-MEK1 phosphorylation on serine residues 217 and 221 was detected by ELISA. […] After a final wash, Eu detection solution was added to each well and the Eu signal was measured in a Wallac Victor^2 Multilabel Counter. […]
observable: IC50

Known results for compounds:
smiles_representation: CCC(C)(C)Nc1c(C#N)cnc2cnc(F)cc12
meas_value: > 40 µM
--
smiles_representation: CC(C)c1ccc(Nc2c(C#N)cnc3cnc(F)cc23)cc1
meas_value: > 40 µM
--
smiles_representation: N#Cc1cnc2cnc(F)cc2c1Nc1ccc2[nH]ccc2c1
meas_value: > 40 µM

What value of measured IC50 is listed for CN(c1ccc(F)c(Cl)c1)c1c(C#N)cnc2cnc(F)cc12 ?
> 10 µM

###

Each entry below carries its reported IC50.
- target_or_test_system: human Cot/Tpl2 kinase (Homo sapiens, UniProt P41279)
- Construct: human Cot/Tpl2 kinase construct encoding residues 30-398; 6His (N); made in house; host or cells: Sf9 insect cells (baculovirus system, BD Biosciences)
- assay_text: Tpl2/Cot kinase assay, GST-MEK1 phosphorylation detected by ELISA (DELFIA Eu)
- Assay type: biochemical
- test_parameters: Table 1; 0.4 nM Tpl2, 35 nM GST-MEK1, 50 uM ATP, 1 h at 30° C.

What value of measured IC50 is listed for Cc1ccc(Nc2c(C#N)cnc3cnc(NCc4cccnc4)cc23)cc1Br ?
> 40 µM

Consider next the compound N#Cc1cnc2cnc(OCCN3CCOCC3)cc2c1Nc1ccc(F)c(Cl)c1 in the same way.
> 40 µM

Consider next the compound CC(C)c1cccc(Nc2c(C#N)cnc3cnc(OCCN4CCOCC4)cc23)c1 in the same way.
> 40 µM
